Target: PDGFRb (Homo sapiens)
Construct: The kinase domain of PDGFRβ was assayed in 50 mM Hepes; purchased Invitrogen P3082
Sequence (P09619 600-962 limits assumed): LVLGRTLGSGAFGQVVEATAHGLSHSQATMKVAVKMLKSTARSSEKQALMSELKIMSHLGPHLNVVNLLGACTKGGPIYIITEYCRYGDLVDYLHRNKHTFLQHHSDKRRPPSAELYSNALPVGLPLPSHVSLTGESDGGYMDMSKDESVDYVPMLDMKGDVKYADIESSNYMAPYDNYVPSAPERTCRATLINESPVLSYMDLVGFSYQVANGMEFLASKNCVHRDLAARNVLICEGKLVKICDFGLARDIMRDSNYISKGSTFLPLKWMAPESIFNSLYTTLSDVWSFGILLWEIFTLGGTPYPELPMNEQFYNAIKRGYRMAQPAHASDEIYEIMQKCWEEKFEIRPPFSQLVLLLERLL
Experiment: PDGFRb kinase in vitro biochemical assay (alphascreen)
Conditions: tested at about 1 μM; read-out: PDGF RK BETA percent inhibition
Here, each record is paired with measured inhibition at 1 µM data.
RECORDED ENDPOINT: inhibition at 1 µM (%)

>>> observed_measurement("CNC(=O)c1ccncc1Oc1ccc2nc(NCC3CCCCC3)sc2c1")
6
>>> observed_measurement("Cn1nccc1-c1nccc(Oc2ccc3nc(N[C@@H]4CCCC[C@H]4O)sc3c2)n1")
20
>>> observed_measurement("CC(=O)NCCNc1cc(Oc2ccc3nc(NCC4CCCCC4)sc3c2)ncn1")
37
>>> observed_measurement("CN1CCN(c2ccc(-c3cc(Oc4ccc5nc(N[C@@H]6CCCC[C@H]6O)sc5c4)cnc3-c3ccc(N4CCN(C)CC4)nc3)cn2)CC1")
26
>>> observed_measurement("O[C@@H]1CCCC[C@H]1Nc1nc2ccc(Oc3cnc(Cl)c(Br)c3)cc2s1")
21
>>> observed_measurement("O[C@@H]1CCCC[C@H]1Nc1nc2ccc(Oc3ccnc(Cl)n3)cc2s1")
0
>>> observed_measurement("CNC(=O)c1ccc(Oc2ccc3nc(N[C@@H]4CCCC[C@H]4O)sc3c2)cn1")
13
>>> observed_measurement("N#Cc1ccc(Oc2ccc3nc(N[C@@H]4CCCC[C@H]4O)sc3c2)cn1")
0
>>> observed_measurement("Nc1ncc(-c2cncc(Oc3ccc4nc(N[C@@H]5CCCC[C@H]5O)sc4c3)c2)cn1")
14
>>> observed_measurement("Cn1cc(-c2cncc(Oc3ccc4nc(N[C@@H]5CCCC[C@H]5O)sc4c3)n2)cn1")
22
>>> observed_measurement("O=C(c1cncc(-c2cncc(Oc3ccc4nc(N[C@@H]5CCCC[C@H]5O)sc4c3)c2)c1)N1CCOCC1")
5
>>> observed_measurement("CNc1cc(Oc2ccc3nc(NCC4CCCCC4)sc3c2)ncn1")
30
>>> observed_measurement("Nc1cc(Oc2ccc3nc(NCC4CCCCC4)sc3c2)nc(N)n1")
0
>>> observed_measurement("Nc1ccc(-c2cc(Oc3ccc4nc(N[C@@H]5CCCC[C@H]5O)sc4c3)cnc2Cl)cn1")
15
>>> observed_measurement("O[C@@H]1CCCC[C@H]1Nc1nc2ccc(Oc3cncc(C4=CCNCC4)c3)cc2s1")
2
>>> observed_measurement("O[C@@H]1CCCC[C@H]1Nc1nc2ccc(Oc3cc(-n4cncn4)ncn3)cc2s1")
14
>>> observed_measurement("O=[N+]([O-])c1ccc(Oc2ccc3nc(NCC4CCCCC4)sc3c2)cn1")
1

Data credit: patent US8293769B2
